Target: Luciferin 4-monooxygenase (Photinus pyralis)
Test: Biochemical firefly luciferase enzyme assay for NPC (AID 624030);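 further: purified P. pyralis luciferase at 10 nM with luciferin and ATP substrate; nearly all actives have a fitted effect of over 70% in size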
Conditions: purified P. pyralis luciferase, luminescence, 5 min; series mostly up to 58.6 µM
Results filed as inconclusive are left out. Activity calls are given as the source filed them. The call rests on the fitted dose curve; in most records, active means well fitted inhibition curve with a large enough effect; inconclusive means small, poorly fitted or top-dose-only effect; inactive means flat fitted curve, though single readings scatter.
TEST READOUT: outcome

Example results:
{"columns": ["STRUCTURE STRING", "outcome"],
 "data": [
  ["O[C@@H]([C@H](O)[C@H](O)CBr)[C@H](O)CBr", "inactive"],
  ["CC(C)CCC[C@@H](C)[C@H]1CC[C@H]2[C@@H]3CC[C@@H]4C[C@H](O)CC[C@]4(C)[C@H]3CC[C@]12C", "inactive"],
  ["CN(Cc1ccccc1)Cc1ccccc1", "inactive"],
  ["NC(=O)[C@H]1O[C@@H](O)[C@H](O)[C@@H](O)[C@@H]1O", "inactive"],
  ["COC(=O)CC[C@H](N)C(=O)O", "inactive"],
  ["CO/N=C(/C(=O)N[C@@H]1C(=O)N2C(C(=O)O)=C(COC(N)=O)CS[C@H]12)c1ccco1", "inactive"]
]}

For Cc1ncc(C[n+]2csc(CCOP(=O)(O)O)c2C)c(N)n1 , what is its reported outcome?
inactive

Which measured outcome value corresponds to O=C(O)C1=C(CSc2nnnn2CS(=O)(=O)O)CS[C@@H]2[C@H](NC(=O)[C@H](O)c3ccccc3)C(=O)N12 ?
inactive

Endpoint output: outcome of CN1CCC(OC(=O)C(Oc2ccc(Cl)cc2)Oc2ccc(Cl)cc2)CC1 . Value?
inactive

I am curious: what outcome value has been reported for CCN(CC)CCC(=O)N1c2ccccc2Sc2ccc(Cl)cc21 ?
inactive

Suppose we examine the molecule O=C(O)Cc1nn(Cc2ccc(Br)cc2F)c(=O)c2ccccc12 ; what outcome value has been reported?
inactive
